test system: Fibroblast; test: Multiplex assay against human fibroblast; format: toxicity, cell-based; settings: 48 h, 1 µM, compound concentration 1 uM, replicate 1
List of Population Normal (%) values.
I only need the number, in %, no unit after it.

These recorded examples may help you get a feel for the data.
O=S(=O)(c1ccccc1)c1cnc2c(N3CCNCC3)cccc2c1 [INTEPIRDINE]
94
Cc1nc2ccc(Oc3ccc(F)cc3)cc2c(=O)n1C[C@H]1CCCN(C(C)C)C1.Cl
96
Oc1c(CN2CCN(c3ccccn3)CC2)cc(Cl)c2cccnc12
94
O=C(NCC(=O)N1CC[C@H](N[C@H]2CC[C@@](O)(c3ccc(-c4ncccn4)cn3)CC2)C1)c1cccc(C(F)(F)F)c1
97

From here, focus on the item given below.
Task: Name the recorded Population Normal (%) of the compound listed here: O=C(NCCO)c1cccc(-c2cc(Nc3ccc(OC(F)(F)F)cc3)ncn2)c1
Output: 98
